Please respond with reported Kd for every item in the list.
target: HsProRS (Homo sapiens); construct: made in house; host or cells: SoluBL-21 E. coli; experiment: TR-FRET ProRS ligand displacement / saturation binding assay, HsProRS; settings: read-out: HsProRS (KD [nM]) +proline; 100 μM proline
Sequence (P07814 996-1512): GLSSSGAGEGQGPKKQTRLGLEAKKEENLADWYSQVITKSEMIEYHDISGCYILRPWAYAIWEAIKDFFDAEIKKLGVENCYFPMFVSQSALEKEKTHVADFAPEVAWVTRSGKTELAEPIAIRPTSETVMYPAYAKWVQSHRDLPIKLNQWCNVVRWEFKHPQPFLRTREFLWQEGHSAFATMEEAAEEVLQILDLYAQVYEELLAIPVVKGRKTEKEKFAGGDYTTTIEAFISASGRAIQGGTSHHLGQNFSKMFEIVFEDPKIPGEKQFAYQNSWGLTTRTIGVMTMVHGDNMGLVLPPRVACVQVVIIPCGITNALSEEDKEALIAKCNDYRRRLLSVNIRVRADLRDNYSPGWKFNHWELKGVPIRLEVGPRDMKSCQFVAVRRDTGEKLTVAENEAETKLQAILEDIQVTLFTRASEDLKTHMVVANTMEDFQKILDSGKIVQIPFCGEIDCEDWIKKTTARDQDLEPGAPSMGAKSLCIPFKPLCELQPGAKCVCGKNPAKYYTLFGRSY
# value in nM; strip the unit string

Request: Give recorded Kd with HsProRS (Homo sapiens) for the following compound: CC(C)(C)OC(=O)N1CCC[C@H]1C(=O)NCC1CCN(C(=O)Nc2nccnc2C(=O)NC2Cc3ccccc3C2)CC1
Response: 270

Request: Find the measured Kd: item O=C(NC1Cc2ccccc2C1)c1nccnc1NC(=O)N1CCC(CNC(=O)[C@@H]2CCCN2)CC1 , target or system HsProRS (Homo sapiens).
Response: 282

Request: Report Kd for O=C(NC1Cc2ccccc2C1)c1nccnc1NC(=O)N1CCC(NC(=O)[C@@H]2CCCN2)CC1 tested on HsProRS (Homo sapiens).
Response: 2130
